Each entry below carries its recorded Maximum single impurity %.
Test: Stability tests of compound of formula I and its monohydrochloride, phosphate and maleate (Example 4)
Format: physicochemical
Conditions: 60° C.-closed-2 wks
Where a name gives a salt, the structure may show the parent alone.
Hi, when you answer, please include the unit after the number. Thanks!

COMPOUND	REPORTED_RESULT
COc1cc(C)c2[nH]ccc2c1CN1CC[C@H](OCC2CC2)C[C@H]1c1ccc(C(=O)O)cc1 [Compound of formula I]	0.33%
COc1cc(C)c2[nH]ccc2c1CN1CCC(OCC2CC2)CC1c1ccc(C(=O)O)cc1.O=C(O)C=CC(=O)O (stereo not shown) [Compound of formula I Maleate]	0.09%

## Task Name the reported Maximum single impurity % value associated with the compound COc1cc(C)c2[nH]ccc2c1CN1CCC(OCC2CC2)CC1c1ccc(C(=O)O)cc1.O=P(O)(O)O (stereo not shown) [Compound of formula I Phosphate]
## Result 0.08%

## Task Next: COc1cc(C)c2[nH]ccc2c1CN1CC[C@H](OCC2CC2)C[C@H]1c1ccc(C(=O)O)cc1 [Compound of formula I Monohydrochloride]
## Result 0.13%

---

Assay: Stability tests of compound of formula I and its monohydrochloride, phosphate and maleate (Example 4)
Type: physicochemical
Conditions: Initial
Structures can show the parent of a compound that is named as a salt.
Each entry below carries its recorded Maximum single impurity %.
Record the value in %, omitting the unit from your answer.

Worked examples, 3 molecules total:
MOLECULE	Maximum single impurity % [%]
COc1cc(C)c2[nH]ccc2c1CN1CCC(OCC2CC2)CC1c1ccc(C(=O)O)cc1.O=P(O)(O)O (stereo not shown) [Compound of formula I Phosphate]	0.07
COc1cc(C)c2[nH]ccc2c1CN1CC[C@H](OCC2CC2)C[C@H]1c1ccc(C(=O)O)cc1 [Compound of formula I Monohydrochloride]	0.14
COc1cc(C)c2[nH]ccc2c1CN1CCC(OCC2CC2)CC1c1ccc(C(=O)O)cc1.O=C(O)C=CC(=O)O (stereo not shown) [Compound of formula I Maleate]	0.08

Continue with the molecule presented below.
## Task Name the reported Maximum single impurity % value associated with the molecule COc1cc(C)c2[nH]ccc2c1CN1CC[C@H](OCC2CC2)C[C@H]1c1ccc(C(=O)O)cc1 [Compound of formula I]
## Result 0.10

---

Experiment: Solubility tests of compound of formula I, mixture of crystal forms A and B, and crystal form C at 37° C. (Example 13)
Type: physicochemical
Conditions: thermodynamic from solid; Water, 37° C.; read-out: Solubility at 1 h
RESULT_TYPE: solubility at 1 h (µg/mL)
Record the value in µg/mL, omitting the unit from your answer.

## Task Name the reported solubility at 1 h value associated with the molecule COc1cc(C)c2[nH]ccc2c1CN1CC[C@H](OCC2CC2)C[C@H]1c1ccc(C(=O)O)cc1 [Compound of formula I]
## Result 370

---

Experiment: Solubility tests in water, SGF, FaSSIF, FeSSIF at 37° C. (Example 5)
Format: physicochemical
Settings: SGF, 37 °C, simulated gastric fluid, thermodynamic from solid, SGF, read-out: Solubility (mg/mL) (1 h)
Method: Experimental procedures: 30 mg (in water) or 15 mg of a sample was weighed out and added to a 4 mL vial; 3 mL of a medium to be tested (water, SGF, FaSSIF, or FeSSIF) was added; the mixture was continuously stirred at 37° C.; 0.5 mL of the sample was separately collected at 1 h and 24 h; centrifugation was performed at 12000 rpm for 10 min; the supernatant was diluted with 50% aqueous acetonitrile solution to an appropriate multiple; and the concentration of the supernatant was determined. […]
RESULT_TYPE: solubility at 1 h
Hi, when you answer, please include the unit after the number. Thanks!

## Task Name the reported solubility at 1 h value associated with the compound COc1cc(C)c2[nH]ccc2c1CN1CC[C@H](OCC2CC2)C[C@H]1c1ccc(C(=O)O)cc1
## Result 5.51 mg/mL

---

Each entry below carries its recorded Purity %.
Experiment: Stability tests of compound of formula I and its monohydrochloride, phosphate and maleate (Example 4)
Format: physicochemical
Conditions: 40° C./75% RH-open-2 wks
Description: The stability of the compound of formula I, the monohydrochloride of the compound of formula I in Example 1, the phosphate of the compound of formula I in Example 2, and the maleate of the compound of formula I in Example 3 were investigated. Stability investigation conditions: 40° C./75% RH-closed, 40° C./75% RH-open, and 60° C.-closed; stability investigation content: changes in related substances and crystal forms. […]
Structures can show the parent of a compound that is named as a salt.
Record the value in %, omitting the unit from your answer.

MOLECULE	UNITS_TEXT	REPORTED_RESULT
COc1cc(C)c2[nH]ccc2c1CN1CC[C@H](OCC2CC2)C[C@H]1c1ccc(C(=O)O)cc1 [Compound of formula I]	%	99.24
COc1cc(C)c2[nH]ccc2c1CN1CC[C@H](OCC2CC2)C[C@H]1c1ccc(C(=O)O)cc1 [Compound of formula I Monohydrochloride]	%	99.59

## Task Name the reported Purity % value associated with the molecule COc1cc(C)c2[nH]ccc2c1CN1CCC(OCC2CC2)CC1c1ccc(C(=O)O)cc1.O=C(O)C=CC(=O)O (stereo not shown) [Compound of formula I Maleate]
## Result 99.64

## Task Next: COc1cc(C)c2[nH]ccc2c1CN1CCC(OCC2CC2)CC1c1ccc(C(=O)O)cc1.O=P(O)(O)O (stereo not shown) [Compound of formula I Phosphate]
## Result 99.64

---

Experiment: Stability tests of compound of formula I and its monohydrochloride, phosphate and maleate (Example 4)
Format: physicochemical
Settings: 60° C.-closed-2 wks
Structures can show the parent of a compound that is named as a salt.
RESULT_TYPE: Total impurity %
Hi, when you answer, please include the unit after the number. Thanks!

Worked examples, 2 compounds total:
COMPOUND	RESULT_TYPE	REPORTED_RESULT
COc1cc(C)c2[nH]ccc2c1CN1CC[C@H](OCC2CC2)C[C@H]1c1ccc(C(=O)O)cc1 [Compound of formula I Monohydrochloride]	Total impurity %	0.41%
COc1cc(C)c2[nH]ccc2c1CN1CCC(OCC2CC2)CC1c1ccc(C(=O)O)cc1.O=P(O)(O)O (stereo not shown) [Compound of formula I Phosphate]	Total impurity %	0.38%

## Task Name the reported Total impurity % value associated with the compound COc1cc(C)c2[nH]ccc2c1CN1CC[C@H](OCC2CC2)C[C@H]1c1ccc(C(=O)O)cc1 [Compound of formula I]
## Result 1.05%

## Task Next: COc1cc(C)c2[nH]ccc2c1CN1CCC(OCC2CC2)CC1c1ccc(C(=O)O)cc1.O=C(O)C=CC(=O)O (stereo not shown) [Compound of formula I Maleate]
## Result 0.31%

---

Test: Stability tests of compound of formula I and its monohydrochloride, phosphate and maleate (Example 4)
Format: physicochemical
Conditions: 60° C.-closed-2 wks
Counter-ions that a name gives are not always drawn.
RESULT_TYPE: Purity % (%)
Record the value in %, omitting the unit from your answer.

## Task Name the reported Purity % value associated with the compound COc1cc(C)c2[nH]ccc2c1CN1CC[C@H](OCC2CC2)C[C@H]1c1ccc(C(=O)O)cc1 [Compound of formula I Monohydrochloride]
## Result 99.59

---

Assay: Solubility tests in water, SGF, FaSSIF, FeSSIF at 37° C. (Example 5)
Assay type: physicochemical
Settings: FeSSIF, 37 °C, fessif, thermodynamic from solid, FeSSIF, read-out: Solubility (mg/mL) (24 h)
RESULT_TYPE: solubility at 24 h (mg/mL)
Record the value in mg/mL, omitting the unit from your answer.

## Task Name the reported solubility at 24 h value associated with the molecule COc1cc(C)c2[nH]ccc2c1CN1CC[C@H](OCC2CC2)C[C@H]1c1ccc(C(=O)O)cc1 [Compound of formula I]
## Result 0.35

---

Each entry below carries its recorded Total impurity %.
Assay: Stability tests of compound of formula I and its monohydrochloride, phosphate and maleate (Example 4)
Type: physicochemical
Conditions: 40° C./75% RH-closed-2 wks
Description: The stability of the compound of formula I, the monohydrochloride of the compound of formula I in Example 1, the phosphate of the compound of formula I in Example 2, and the maleate of the compound of formula I in Example 3 were investigated. Stability investigation conditions: 40° C./75% RH-closed, 40° C./75% RH-open, and 60° C.-closed; stability investigation content: changes in related substances and crystal forms. […]
Structures can show the parent of a compound that is named as a salt.
Record the value in %, omitting the unit from your answer.

MOLECULE	Total impurity % (%)
COc1cc(C)c2[nH]ccc2c1CN1CC[C@H](OCC2CC2)C[C@H]1c1ccc(C(=O)O)cc1 [Compound of formula I]	0.77
COc1cc(C)c2[nH]ccc2c1CN1CC[C@H](OCC2CC2)C[C@H]1c1ccc(C(=O)O)cc1 [Compound of formula I Monohydrochloride]	0.43
COc1cc(C)c2[nH]ccc2c1CN1CCC(OCC2CC2)CC1c1ccc(C(=O)O)cc1.O=P(O)(O)O (stereo not shown) [Compound of formula I Phosphate]	0.37

Continue with the molecule presented below.
## Task Name the reported Total impurity % value associated with the molecule COc1cc(C)c2[nH]ccc2c1CN1CCC(OCC2CC2)CC1c1ccc(C(=O)O)cc1.O=C(O)C=CC(=O)O (stereo not shown) [Compound of formula I Maleate]
## Result 0.22
